Numbers sourced from paper PMC5784158.

Collected pIC50 values appear next to each entry.
# target system: AChE (Musca domestica)
# experiment: biochemical
# Assay type: biochemical, fly
# test settings: read-out: IC50 ± S.D AChE
A value of pIC50 is the negative decimal logarithm of a concentration given in moles per litre.

CCCCn1c2c(c3ccccc31)CC[N+](c1ccccc1)=C2.[Br-] [Compound A42] | 5.01
CCCn1c2ccccc2c2cc[n+](-c3ccccc3)cc21.[Br-] [Compound B39, 9-Propyl-2-phenyl-β-carboline bromide] | 5.51
C=CCn1c2ccccc2c2cc[n+](-c3ccccc3)cc21.[Br-] [Compound B41, 9-Allyl-2-phenyl-β-carboline bromide] | 5.93
Cc1ccc([N+]2=Cc3c(c4ccccc4n3C)CC2)cc1 [Compound A22] | 5.84
Cn1c2ccccc2c2cc[n+](-c3cccc(Cl)c3)cc21.[Br-] [Compound B6] | 5.02
Cn1c2ccccc2c2cc[n+](-c3ccc(Br)cc3)cc21.[Br-] [Compound B10] | 6.37
Cn1c2cc(F)ccc2c2cc[n+](-c3ccccc3)cc21.[Br-] [Compound B36] | 5.58

// COc1ccc2c(c1)c1c(n2C)C=[N+](c2ccccc2)CC1.[Br-] [Compound A34] : pIC50 value = 5.69

---

# target system: AChE (Musca domestica)
# experiment: biochemical
# Format: biochemical, fly
# test settings: test concentration of the compound 10 μM
measured attribute: Inhibition rate (%)

Use these answered entries as a reference point.
CCn1c2c(c3ccccc31)CC[N+](c1ccccc1)=C2.[Br-] | 76.6 ± 3.7 a %
Cn1c2ccccc2c2cc[n+](-c3ccc(F)cc3)cc21.[Br-] | 84.3 ± 1.5 hi %
Cn1c2c(c3ccccc31)CC[N+](c1ccc(O)cc1)=C2.[Br-] | 64.3 ± 0.3 cd %
Cn1c2c(c3ccccc31)CC[N+](c1ccc(C(F)(F)F)cc1)=C2.[Br-] | 28.4 ± 1.0 k %
Cn1c2cc(F)ccc2c2cc[n+](-c3ccccc3)cc21.[Br-] | 76.2 ± 1.1 k %
Cn1c2ccccc2c2cc[n+](-c3ccccc3F)cc21.[Br-] | 59.8 ± 3.2 n %
CC(C)Cn1c2c(c3ccccc31)CC[N+](c1ccccc1)=C2.[Br-] | 46.5 ± 1.9 ghi %
Cc1ccc(-[n+]2ccc3c4ccccc4n(C)c3c2)cc1.[Br-] | 95.2 ± 0.5 abc %

// COc1ccc2c(c1)c1c(n2C)C=[N+](c2ccccc2)CC1.[Br-] : Inhibition rate (%) value = 68.4 ± 2.8 c %

// CCOC(=O)Cn1c2ccccc2c2cc[n+](-c3ccccc3)cc21.[Br-] : Inhibition rate (%) value = 42.0 ± 0.7 rs %

---

# target system: AChE (Musca domestica, UniProt Q7YWJ9)
# Sequence (Q7YWJ9 81-659): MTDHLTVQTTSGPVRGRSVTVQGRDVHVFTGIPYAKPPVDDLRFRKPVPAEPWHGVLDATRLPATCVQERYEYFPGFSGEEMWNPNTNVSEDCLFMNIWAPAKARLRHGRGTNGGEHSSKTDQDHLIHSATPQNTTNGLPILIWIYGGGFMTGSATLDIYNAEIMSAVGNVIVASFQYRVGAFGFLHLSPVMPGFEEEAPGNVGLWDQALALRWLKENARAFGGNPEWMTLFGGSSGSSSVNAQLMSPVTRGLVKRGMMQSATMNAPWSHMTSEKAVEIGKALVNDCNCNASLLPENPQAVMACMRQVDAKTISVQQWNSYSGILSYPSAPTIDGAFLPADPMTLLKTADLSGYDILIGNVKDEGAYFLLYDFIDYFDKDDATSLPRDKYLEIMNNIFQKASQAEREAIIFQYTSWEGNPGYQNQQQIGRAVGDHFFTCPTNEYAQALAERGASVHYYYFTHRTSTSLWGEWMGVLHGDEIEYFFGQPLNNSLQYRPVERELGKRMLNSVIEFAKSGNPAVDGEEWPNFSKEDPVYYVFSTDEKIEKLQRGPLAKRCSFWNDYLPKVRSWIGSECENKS
# experiment: biochemical
# Assay type: biochemical, fly
Tick Satisfied if SI: selectivity index, ratio IC50 (BuChE)/IC50 (AChE) is 10 or greater. Tick Not satisfied if SI: selectivity index, ratio IC50 (BuChE)/IC50 (AChE) is less than 10.

See these solved cases before continuing.
CCn1c2c(c3ccccc31)CC[N+](c1ccccc1)=C2.[Br-] | Not satisfied
Cn1c2c(c3ccccc31)CC[N+](c1ccc(Br)cc1)=C2.[Br-] | Satisfied
Cc1ccc([N+]2=Cc3c(c4ccccc4n3C)CC2)cc1 | Satisfied

Next:
Reported SI: selectivity index, ratio IC50 (BuChE)/IC50 (AChE) reaches at least 10 for Cn1c2c(c3ccc(F)cc31)CC[N+](c1ccccc1)=C2.[Br-] ?
Not satisfied

---

Collected Inhibition rate (%) values appear next to each entry.
# target system: AChE (Musca domestica, UniProt Q7YWJ9)
# experiment: biochemical
# Type: biochemical, fly
# test settings: test concentration of the compound 10 μM

COc1ccc([N+]2=Cc3c(c4ccccc4n3C)CC2)cc1.[Br-] | 66.1 ± 0.5 c %

// Cn1c2ccccc2c2cc[n+](-c3ccccc3O)cc21.[Br-] : Inhibition rate (%) value = 23.9 ± 4.3 v %

// Cn1c2c(c3ccccc31)CC[N+](c1cc(Cl)cc(Cl)c1)=C2.[Br-] : Inhibition rate (%) value = 0.7 ± 0.5 stu %

// Cn1c2c(c3ccccc31)CC[N+](c1cccc(Cl)c1)=C2.[Br-] : Inhibition rate (%) value = 19.3 ± 4.0 lm %

---

# experiment: In vitro cytotoxicity, MTT assay
# test settings: pig, primary cultured porcine fetal kidney cells
measured attribute: IC50 at 48 h (µM)
State the answer as a number, implicitly in µM.

// Cc1ccc([N+]2=Cc3c(c4ccccc4n3C)CC2)cc1 : IC50 at 48 h value = 5.18

---

# target system: AChE (Musca domestica)
# experiment: biochemical
# Assay type: biochemical, fly
Collected SI: selectivity index, ratio IC50 (BuChE)/IC50 (AChE) values appear next to each entry.
Field format: numeric only.

Use these answered entries as a reference point.
Cn1c2ccccc2c2cc[n+](-c3cccc(Cl)c3)cc21.[Br-] | 3.40
Cn1c2c(c3ccccc31)CC[N+](c1cccc(O)c1)=C2.[Br-] | 1.63
Cn1c2ccccc2c2cc[n+](-c3ccc(Br)cc3)cc21.[Br-] | 128.8
Cc1ccc2c(c1)c1c(n2C)C=[N+](c2ccccc2)CC1.[Br-] | 3.98

Now turn to the next molecule.
// C=CCn1c2c(c3ccccc31)CC[N+](c1ccccc1)=C2.[Br-] : SI: selectivity index, ratio IC50 (BuChE)/IC50 (AChE) value = 1.75

---

# target system: AChE (Musca domestica)
# experiment: biochemical
# Format: biochemical, fly
measured attribute: SI: selectivity index, ratio IC50 (BuChE)/IC50 (AChE)
Field format: numeric only.

// CCCn1c2c(c3ccccc31)CC[N+](c1ccccc1)=C2.[Br-] [Compound A39] : SI: selectivity index, ratio IC50 (BuChE)/IC50 (AChE) value = 2.27

// Cn1c2ccccc2c2cc[n+](-c3ccc(I)cc3)cc21.[Br-] [Compound B13] : SI: selectivity index, ratio IC50 (BuChE)/IC50 (AChE) value = 168.3

// Cn1c2ccccc2c2cc[n+](-c3cccc(C#N)c3)cc21.[Br-] [Compound B24] : SI: selectivity index, ratio IC50 (BuChE)/IC50 (AChE) value = 20.6

---

# target system: AChE (Musca domestica, UniProt Q7YWJ9)
# experiment: biochemical
# Format: biochemical, fly
# test settings: test concentration of the compound 10 μM
Collected Inhibition rate (%) values appear next to each entry.

Use these answered entries as a reference point.
[Br-].c1ccc(Cn2c3ccccc3c3cc[n+](-c4ccccc4)cc32)cc1 [Compound B44, 9-Benzyl-2-phenyl-β-carboline bromide] | 47.8 ± 2.0 q %
COc1ccccc1-[n+]1ccc2c3ccccc3n(C)c2c1.[Br-] [Compound B17] | 41.0 ± 2.9 rs %
Brc1ccc([N+]2=Cc3[nH]c4ccccc4c3CC2)cc1.[Br-] [Compound A47] | 16.0 ± 1.7 mnop %

// Cn1c2c(c3ccccc31)CC[N+](c1ccc(Cl)cc1Cl)=C2.[Br-] [Compound A30] : Inhibition rate (%) value = −0.5 ± 2.4 tu %

// Cn1c2ccccc2c2cc[n+](-c3cccc([N+](=O)[O-])c3)cc21.[Br-] [Compound B28] : Inhibition rate (%) value = 34.9 ± 1.8 tu %

// Cn1c2ccccc2c2cc[n+](-c3ccc(Br)cc3F)cc21.[Br-] [Compound B32] : Inhibition rate (%) value = 92.8 ± 1.0 abc %

// Cn1c2c(c3ccccc31)CC[N+](c1ccccc1O)=C2.[Br-] [Compound A14] : Inhibition rate (%) value = 23.2 ± 2.5 kl %

// Cn1c2ccccc2c2cc[n+](-c3cccc(Br)c3)cc21.[Br-] [Compound B9] : Inhibition rate (%) value = 48.8 ± 6.6 q %

// Cn1c2ccccc2c2cc[n+](-c3ccc(I)cc3)cc21.[Br-] [Compound B13] : Inhibition rate (%) value = 93.8 ± 0.4 abcd %

// Cc1ccccc1[N+]1=Cc2c(c3ccccc3n2C)CC1.[Br-] [Compound A20] : Inhibition rate (%) value = 44.3 ± 1.7 j %

// Cn1c2c(c3ccccc31)CC[N+](c1cccc(Br)c1)=C2.[Br-] [Compound A9] : Inhibition rate (%) value = 16.2 ± 3.3 mno %

// Cn1c2ccccc2c2cc[n+](-c3ccc(C#N)cc3)cc21.[Br-] [Compound B25] : Inhibition rate (%) value = 36.8 ± 0.8 t %

// Cn1c2c(c3ccccc31)CC[N+](c1ccc(F)cc1)=C2.[Br-] [Compound A4] : Inhibition rate (%) value = 49.3 ± 2.2 fgh %

// Cn1c2c(c3ccc(Cl)cc31)CC[N+](c1ccccc1)=C2.[Br-] [Compound A37] : Inhibition rate (%) value = 66.6 ± 4.7 c %

// CC(C)Cn1c2ccccc2c2cc[n+](-c3ccccc3)cc21.[Br-] [Compound B43, 9-Iso-butyl-2-phenyl-β-carboline bromide] : Inhibition rate (%) value = 84.1 ± 0.6 hi %
